These measurements were taken from patent US20090325862A1.

System Tested: recombinant human HDAC1 enzyme (Homo sapiens, UniProt Q13547)
Sequence (Q13547 whole entry): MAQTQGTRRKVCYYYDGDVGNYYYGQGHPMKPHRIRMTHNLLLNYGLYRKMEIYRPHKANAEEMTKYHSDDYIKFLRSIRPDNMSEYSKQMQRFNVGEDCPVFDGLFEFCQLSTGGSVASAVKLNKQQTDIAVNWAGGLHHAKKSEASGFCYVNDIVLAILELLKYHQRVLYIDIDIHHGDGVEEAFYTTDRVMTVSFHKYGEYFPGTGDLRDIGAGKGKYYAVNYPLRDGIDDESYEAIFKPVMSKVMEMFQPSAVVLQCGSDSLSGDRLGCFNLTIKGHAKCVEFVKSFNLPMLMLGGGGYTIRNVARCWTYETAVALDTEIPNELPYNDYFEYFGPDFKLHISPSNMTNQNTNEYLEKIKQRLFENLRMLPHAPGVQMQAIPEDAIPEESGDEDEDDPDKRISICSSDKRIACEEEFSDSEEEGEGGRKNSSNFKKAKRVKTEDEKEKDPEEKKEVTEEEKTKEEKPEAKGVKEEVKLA
Assay Details: HDAC1 assay (Fluor-de-Lys fluorescence)
Condition Set: HDAC Class I; read-out: IC50 Inhibition, HDAC1
Measure: pIC50
Quick note: pIC50 values are minus log10 of concentrations in mol/L.

## Input Determine from records and report pIC50 for CCCCCC[C@@H](CCC)C(=O)O
## Output 5.00

====

System Tested: recombinant human HDAC3 enzyme (HDAC3(DAD) enzyme complex) (Homo sapiens, UniProt O15379)
Sequence (O15379 whole entry): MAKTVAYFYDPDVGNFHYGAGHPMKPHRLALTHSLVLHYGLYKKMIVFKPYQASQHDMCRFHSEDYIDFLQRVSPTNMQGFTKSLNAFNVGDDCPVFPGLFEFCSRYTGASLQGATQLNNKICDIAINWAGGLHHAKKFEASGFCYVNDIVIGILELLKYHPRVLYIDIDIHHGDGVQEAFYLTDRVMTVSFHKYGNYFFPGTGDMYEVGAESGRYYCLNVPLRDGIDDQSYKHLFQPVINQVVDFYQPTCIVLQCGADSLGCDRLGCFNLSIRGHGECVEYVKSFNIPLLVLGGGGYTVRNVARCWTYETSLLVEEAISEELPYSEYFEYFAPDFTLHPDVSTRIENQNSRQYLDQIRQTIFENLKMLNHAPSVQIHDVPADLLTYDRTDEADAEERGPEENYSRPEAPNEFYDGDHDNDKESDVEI
Sequence (Q9Y618 389-480 partner limits assumed): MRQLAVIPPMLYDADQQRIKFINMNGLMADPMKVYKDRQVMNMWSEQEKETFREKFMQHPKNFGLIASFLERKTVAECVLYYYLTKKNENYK
Assay Details: HDAC3 assay (Fluor-de-Lys fluorescence)
Condition Set: HDAC Class I; read-out: IC50 Inhibition, HDAC3
Measure: IC50 (µM)
Hi! Could you send only the number? It should be in µM, unit omitted.

## Input Determine from records and report IC50 for CCCCCC[C@@H](CCC)C(=O)O
## Output 36

====

# maps each entry to its pIC50
System Tested: HDAC4 (Homo sapiens, UniProt P56524)
Sequence (P56524 whole entry, species assumed, canonical isoform): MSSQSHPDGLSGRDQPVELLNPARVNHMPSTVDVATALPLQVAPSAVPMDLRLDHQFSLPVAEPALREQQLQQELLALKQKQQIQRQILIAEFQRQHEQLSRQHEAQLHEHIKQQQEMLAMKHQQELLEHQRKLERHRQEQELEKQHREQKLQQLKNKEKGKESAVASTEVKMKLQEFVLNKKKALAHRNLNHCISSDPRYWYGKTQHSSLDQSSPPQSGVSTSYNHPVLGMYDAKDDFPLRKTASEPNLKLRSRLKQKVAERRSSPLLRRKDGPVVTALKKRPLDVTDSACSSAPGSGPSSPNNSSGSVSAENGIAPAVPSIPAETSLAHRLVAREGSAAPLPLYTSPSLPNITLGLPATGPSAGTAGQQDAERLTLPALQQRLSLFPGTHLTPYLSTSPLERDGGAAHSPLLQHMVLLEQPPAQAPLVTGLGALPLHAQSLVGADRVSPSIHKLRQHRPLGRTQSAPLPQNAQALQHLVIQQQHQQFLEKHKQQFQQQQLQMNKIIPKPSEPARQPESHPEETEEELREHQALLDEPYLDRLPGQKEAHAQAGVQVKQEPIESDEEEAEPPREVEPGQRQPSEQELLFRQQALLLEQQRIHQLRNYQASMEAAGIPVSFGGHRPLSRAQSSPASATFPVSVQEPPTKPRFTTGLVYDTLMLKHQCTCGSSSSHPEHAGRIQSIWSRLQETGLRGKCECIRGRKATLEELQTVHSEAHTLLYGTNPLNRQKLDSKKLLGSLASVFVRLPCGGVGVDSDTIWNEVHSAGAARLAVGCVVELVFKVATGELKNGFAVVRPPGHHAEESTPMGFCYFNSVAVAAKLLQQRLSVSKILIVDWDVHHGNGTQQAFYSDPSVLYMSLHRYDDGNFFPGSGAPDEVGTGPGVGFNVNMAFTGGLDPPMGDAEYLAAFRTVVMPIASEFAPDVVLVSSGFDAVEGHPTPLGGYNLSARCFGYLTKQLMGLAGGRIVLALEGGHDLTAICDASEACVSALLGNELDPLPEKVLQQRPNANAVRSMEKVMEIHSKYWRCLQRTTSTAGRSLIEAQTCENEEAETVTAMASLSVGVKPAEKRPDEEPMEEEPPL
Assay Details: cell-free, isoform selective HDAC enzyme assay, HDAC4
Condition Set: HDAC Class IIa; read-out: IC50 Inhibition, HDAC4
pIC50: −log10 of the molar value.

## Input Determine from records and report pIC50 for CCCC(CCC)C(=O)O
## Output < 4.60

Could you now consider this next compound?
## Input Determine from records and report pIC50 for CCCCCC[C@@H](CCC)C(=O)O
## Output < 4.30

====

System Tested: human HDAC8 enzyme (Homo sapiens, UniProt Q9BY41)
Sequence (Q9BY41 1-377): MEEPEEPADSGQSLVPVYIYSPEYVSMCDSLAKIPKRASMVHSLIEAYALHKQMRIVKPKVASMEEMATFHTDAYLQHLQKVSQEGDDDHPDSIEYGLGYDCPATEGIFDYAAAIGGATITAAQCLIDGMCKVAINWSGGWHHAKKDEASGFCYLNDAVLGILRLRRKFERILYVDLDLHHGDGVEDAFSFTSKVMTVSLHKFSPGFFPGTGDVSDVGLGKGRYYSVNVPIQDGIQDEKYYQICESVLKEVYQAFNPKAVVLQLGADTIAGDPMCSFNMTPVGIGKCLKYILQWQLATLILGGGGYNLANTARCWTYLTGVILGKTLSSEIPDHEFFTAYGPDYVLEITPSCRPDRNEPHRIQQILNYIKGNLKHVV
Measure: IC50 (µM)
Hi! Could you send only the number? It should be in µM, unit omitted.

## Input Determine from records and report IC50 for CCCCCC[C@@H](CCC)C(=O)O
## Output 31

====

System Tested: UniProtKB Q9UBN7
Sequence (Q9UBN7 1-1215): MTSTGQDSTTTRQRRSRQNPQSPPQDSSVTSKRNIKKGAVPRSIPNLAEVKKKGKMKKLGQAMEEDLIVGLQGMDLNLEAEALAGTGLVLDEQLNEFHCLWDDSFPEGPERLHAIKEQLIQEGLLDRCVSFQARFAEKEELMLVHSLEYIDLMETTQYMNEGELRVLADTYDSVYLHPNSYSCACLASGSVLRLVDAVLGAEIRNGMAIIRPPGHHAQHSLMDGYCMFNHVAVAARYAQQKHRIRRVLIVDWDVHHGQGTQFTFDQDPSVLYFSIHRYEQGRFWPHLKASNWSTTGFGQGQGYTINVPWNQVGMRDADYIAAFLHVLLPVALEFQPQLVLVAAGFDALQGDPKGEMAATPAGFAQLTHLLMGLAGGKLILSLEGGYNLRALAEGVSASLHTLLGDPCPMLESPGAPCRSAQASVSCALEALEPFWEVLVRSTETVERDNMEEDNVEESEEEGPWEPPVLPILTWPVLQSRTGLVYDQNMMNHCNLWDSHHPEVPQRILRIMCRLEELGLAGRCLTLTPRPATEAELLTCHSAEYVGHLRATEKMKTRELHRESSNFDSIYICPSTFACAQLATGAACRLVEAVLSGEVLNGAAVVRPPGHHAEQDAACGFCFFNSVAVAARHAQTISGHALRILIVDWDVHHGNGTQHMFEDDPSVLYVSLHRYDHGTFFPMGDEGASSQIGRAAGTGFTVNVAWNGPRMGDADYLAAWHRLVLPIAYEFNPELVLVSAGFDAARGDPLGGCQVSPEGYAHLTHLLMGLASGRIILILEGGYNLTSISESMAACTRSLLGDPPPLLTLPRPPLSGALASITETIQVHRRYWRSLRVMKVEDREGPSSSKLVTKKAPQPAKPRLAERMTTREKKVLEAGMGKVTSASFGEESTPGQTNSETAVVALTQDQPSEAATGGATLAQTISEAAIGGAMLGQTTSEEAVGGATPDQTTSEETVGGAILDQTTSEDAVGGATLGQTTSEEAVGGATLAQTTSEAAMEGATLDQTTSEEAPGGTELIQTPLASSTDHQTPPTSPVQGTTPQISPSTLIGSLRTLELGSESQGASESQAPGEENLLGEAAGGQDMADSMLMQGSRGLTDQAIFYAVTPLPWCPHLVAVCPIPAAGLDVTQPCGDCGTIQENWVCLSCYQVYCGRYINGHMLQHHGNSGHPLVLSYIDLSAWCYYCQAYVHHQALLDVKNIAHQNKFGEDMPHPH
Assay Details: cell-free, isoform selective HDAC enzyme assay, HDAC6
Format: biochemical
Condition Set: HDAC Class IIb; read-out: IC50 Inhibition, HDAC6
pIC50: −log10 of the molar value.
Measure: pIC50

## Input Determine from records and report pIC50 for CCCCCC[C@@H](CCC)C(=O)O [Arundic acid, (2R)-2-propyloctanoic acid]
## Output < 4.30

====

System Tested: HDAC6 (Homo sapiens, UniProt Q9UBN7)
Sequence (Q9UBN7 1-1215): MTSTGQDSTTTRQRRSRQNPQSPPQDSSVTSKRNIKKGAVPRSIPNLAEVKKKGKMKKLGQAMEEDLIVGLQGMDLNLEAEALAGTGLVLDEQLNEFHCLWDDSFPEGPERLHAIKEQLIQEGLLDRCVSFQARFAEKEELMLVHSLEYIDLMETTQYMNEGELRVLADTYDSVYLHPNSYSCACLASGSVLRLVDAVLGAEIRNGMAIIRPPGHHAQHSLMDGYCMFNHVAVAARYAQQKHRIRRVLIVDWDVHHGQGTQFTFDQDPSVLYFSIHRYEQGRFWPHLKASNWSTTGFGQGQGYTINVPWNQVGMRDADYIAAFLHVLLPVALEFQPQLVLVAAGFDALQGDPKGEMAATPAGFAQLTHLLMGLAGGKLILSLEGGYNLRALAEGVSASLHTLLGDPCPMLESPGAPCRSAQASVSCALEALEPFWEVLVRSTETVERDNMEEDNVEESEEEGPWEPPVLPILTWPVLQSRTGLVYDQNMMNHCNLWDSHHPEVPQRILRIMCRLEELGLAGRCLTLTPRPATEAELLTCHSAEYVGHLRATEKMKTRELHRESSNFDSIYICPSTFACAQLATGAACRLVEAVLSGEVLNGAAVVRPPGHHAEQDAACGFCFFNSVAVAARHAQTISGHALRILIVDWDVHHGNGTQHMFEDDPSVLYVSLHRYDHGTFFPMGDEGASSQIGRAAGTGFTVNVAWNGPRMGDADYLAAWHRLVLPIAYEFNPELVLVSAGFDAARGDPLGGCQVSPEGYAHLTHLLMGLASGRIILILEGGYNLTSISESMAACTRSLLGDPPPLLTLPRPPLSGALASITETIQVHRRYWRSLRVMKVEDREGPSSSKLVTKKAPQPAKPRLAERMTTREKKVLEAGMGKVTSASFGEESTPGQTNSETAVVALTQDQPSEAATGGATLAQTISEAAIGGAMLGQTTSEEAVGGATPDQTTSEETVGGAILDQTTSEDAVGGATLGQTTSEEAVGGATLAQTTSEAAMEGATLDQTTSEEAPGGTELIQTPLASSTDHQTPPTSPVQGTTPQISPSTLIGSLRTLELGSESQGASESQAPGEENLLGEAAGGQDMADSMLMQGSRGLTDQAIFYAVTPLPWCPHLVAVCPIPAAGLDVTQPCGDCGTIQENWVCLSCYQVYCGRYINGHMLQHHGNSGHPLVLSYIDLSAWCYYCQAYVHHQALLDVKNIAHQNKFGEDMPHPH
Assay Details: cell-free, isoform selective HDAC enzyme assay, HDAC6
Type: biochemical
Measure: IC50

## Input Determine from records and report IC50 for CCCC(CCC)C(=O)O
## Output > 5 mM
